Let's look at some compounds and their measured GI50.
Test system: KM12 colon
assayProcedure: NCI tumour cell line growth inhibition, 48 h

# sampleSmiles, experimentalTarget, GI50
measured = [
    ("Cc1cccc(Oc2nccc(-c3c(-c4ccc(F)cc4)ncn3C3CCNCC3)n2)c1C", "KM12 colon", "11200 nM"),
    ("Cc1cc2cc3cc(C)c(N(C)C)cc3nc2cc1N(C)C", "KM12 colon", "1660 nM"),
    ("Cc1nc2sccn2c(=O)c1CCN1CCC(=C(c2ccc(F)cc2)c2ccc(F)cc2)CC1", "KM12 colon", "12200 nM"),
    ("ClC1=C(Cl)C(Cl)=C(Cl)C1=C/C=C/c1ccccc1", "KM12 colon", "272 nM"),
]

## Input Which GI50 value belongs to `O=C1C(Br)=CC2(C=C1Br)CCN=c1c2c(O)c2nc3ccccc3c3ccnc1c23` ?
## Output 2420 nM

## Input Which GI50 value belongs to `COc1cc(NCCCCN=C(N)NC(N)=NC(C)C)c2ncccc2c1` ?
## Output 1480 nM
